Measured values drawn from paper PMC5218480 for this set.

Here's what we have: IC50 numbers for HDAC3 (Homo sapiens, UniProt O15379).
Write the value in nM as a bare number.

1. Nc1ccc(-c2cccs2)cc1NC(=O)c1ccc2nc(N3CCNCC3)ccc2c1 1160

Turning now to a further compound:
**Query** Any idea what IC50 came out for `Nc1ccc(-c2cccs2)cc1NC(=O)c1ccc2c(c1)cc(C1CC1)n2CCN1CCOCC1` on HDAC3 (Homo sapiens, UniProt O15379)?
**Result** 2000

----------
Assay system HDAC1 (Homo sapiens, UniProt Q13547); read-out recorded as IC50.
Just the number please, in nM, no unit attached.

1) Nc1ccc(-c2cccs2)cc1NC(=O)c1ccc2nc(N3CCNCC3)ccc2c1 7.2

Let us examine a further case.
**Query** Query for HDAC1 (Homo sapiens, UniProt Q13547): what IC50 does the record show for `Nc1ccc(-c2cccs2)cc1NC(=O)c1ccc2c(c1)cc(C1CC1)n2CCN1CCOCC1` ?
**Result** 9.4

----------
tested on: Kasumi-1 cells; test: Cell viability assay (CellTiter-Glo); settings: read-out: IC50 cell viability Kasumi-1; 72 hours
Observed property: IC50 (µM)
Your answer should be a plain number; it is taken to be in µM.

1. Nc1ccc(-c2cccs2)cc1NC(=O)c1ccc2nc(N3CCNCC3)ccc2c1 1.6

# input for lookup
**Query** What IC50 value was documented for this compound, `Nc1ccc(-c2cccs2)cc1NC(=O)c1ccc2c(c1)cc(C1CC1)n2CCN1CCOCC1` ?
**Result** 2.6

----------
tested on: NB-4 cells; test: Cell viability assay (CellTiter-Glo); settings: read-out: IC50 cell viability NB-4; 72 hours
Each entry below lists one item and its recorded IC50 value.
Please give a number only; it is taken to be in nM.

1. Nc1ccc(-c2cccs2)cc1NC(=O)c1ccc2c(c1)cc(C1CC1)n2CCN1CCOCC1 2800

**Query** # returns recorded IC50 (system: NB-4 cells) for `Nc1ccc(-c2cccs2)cc1NC(=O)c1ccc2nc(N3CCNCC3)ccc2c1`
**Result** 1600

----------
Record set of IC50 for target or system HDAC2 (Homo sapiens).
Give the number; nM is assumed, so skip it.

Compound	Observed property	Assay result
Nc1ccc(-c2cccs2)cc1NC(=O)c1ccc2nc(N3CCNCC3)ccc2c1 [ACY-957]	IC50	26

The record that follows has no IC50 shown yet.
**Query** Param item = Nc1ccc(-c2cccs2)cc1NC(=O)c1ccc2c(c1)cc(C1CC1)n2CCN1CCOCC1 [ACY-1035] ; retrieve measured IC50.
**Result** 23
